Reference source: paper PMC6792352

assay: in vitro; conditions: rat, gh3-tre-luc cells, AC50 (uM) modified / 1000, Tox21_110001=Tox21_200899; viability, 1 nM T3 present, 24 h

>  <molecule>
O=[N+]([O-])C(Br)Br [Dibromonitromethane]

>  <CC50 at 24 h>
> 90 µM

$$$$

---

tested on: GH3-TRE-Luc cell line; settings: read-out: AC50 (uM) modified / 1000; Tox21_110001=Tox21_302563; viability, 1 nM T3 present, 24 h
property label: CC50 (µM)

>  <compound>
OCCOCCN1CCN(C(c2ccccc2)c2ccc(Cl)cc2)CC1 (stereo not shown) [Hydroxyzine]

>  <study target>
GH3-TRE-Luc cell line

>  <uom>
µM

>  <val>
16.6

$$$$

---

assay: in vitro; details: rat, gh3-tre-luc cells, AC50 (uM) modified / 1000, Tox21_110001=Tox21_200147; viability, 1 nM T3 present, 24 h
property label: CC50 at 24 h

>  <compound>
CCC(Cl)CCl (stereo not shown) [1,2-Dichlorobutane]

>  <property label>
CC50 at 24 h

>  <val>
> 90 µM

$$$$

---

test: in vitro; conditions: rat, gh3-tre-luc cells, AC50 (uM) modified / 1000, Tox21_110001=Tox21_302850; viability, 1 nM T3 present, 24 h
property label: CC50 at 24 h

>  <substance smiles>
CN(N=O)C(N)=O

>  <val>
> 90 µM

$$$$

---

test: in vitro; conditions: rat, gh3-tre-luc cells, AC50 (uM) modified / 1000, Tox21_110001=Tox21_201854; viability, 1 nM T3 present, 24 h
property label: CC50 at 24 h

>  <substance smiles>
O=C(O)COc1ccccc1

>  <property label>
CC50 at 24 h

>  <val>
> 90 µM

$$$$

---

experiment: in vitro; conditions: rat, gh3-tre-luc cells, AC50 (uM) modified / 1000
Entries and their CC50 at 24 h values follow.

>  <compound>
CCOCCn1c(N2CCCN(C)CC2)nc2ccccc21 [Emedastine difumarate]

>  <CC50 at 24 h>
> 50 µM

$$$$
>  <compound>
NCc1ccccc1CC(=O)N[C@@H]1C(=O)N2C(C(=O)O)=C(CSc3nnnn3CC(=O)O)CS[C@H]12 [Ceforanide]

>  <CC50 at 24 h>
> 20 µM

$$$$
>  <compound>
COCC(=O)N(c1c(C)cccc1C)C(C)C(=O)OC (centres unmarked) [Metalaxyl]

>  <CC50 at 24 h>
> 90 µM

$$$$
>  <compound>
C=CC(=O)OCCOCCOC(=O)C=C [Diethylene glycol diacrylate]

>  <CC50 at 24 h>
21.6 µM

$$$$
>  <compound>
CC(=O)CCC1=C(C)CCCC1(C)C [Dihydro-beta-ionone]

>  <CC50 at 24 h>
> 90 µM

$$$$

---

assay: in vitro; conditions: rat, gh3-tre-luc cells, AC50 (uM) modified / 1000
Where a name gives a salt, the structure may show the parent alone.
property label: CC50 at 24 h

>  <compound>
O=C1CSC2(CCN(CCCN3c4ccccc4Sc4ccc(Cl)cc43)CC2)N1 [Spiclomazine hydrochloride]

>  <property label>
CC50 at 24 h

>  <val>
6.81 µM

$$$$
>  <compound>
C=C(C)C(=O)OCC[N+](C)(C)C

>  <property label>
CC50 at 24 h

>  <val>
62.4 µM

$$$$
>  <compound>
C[Si](C)(C)O[Si](C)(C)C [Hexamethyldisiloxane]

>  <property label>
CC50 at 24 h

>  <val>
> 90 µM

$$$$
>  <compound>
CCCCOCC(C)O (stereo not drawn) [1-Butoxy-2-propanol]

>  <property label>
CC50 at 24 h

>  <val>
> 90 µM

$$$$
>  <compound>
Cc1cccc2nccnc12 [5-Methylquinoxaline]

>  <property label>
CC50 at 24 h

>  <val>
> 90 µM

$$$$
>  <compound>
OCc1ccccc1O [Salicyl alcohol]

>  <property label>
CC50 at 24 h

>  <val>
> 50 µM

$$$$
>  <compound>
CC(Cl)(Cl)Cl [1,1,1-Trichloroethane]

>  <property label>
CC50 at 24 h

>  <val>
> 90 µM

$$$$
>  <compound>
Cc1nnc2n1-c1sc(CCc3ccc(CC(C)C)cc3)cc1C(c1ccccc1Cl)=NC2C (stereo not drawn) [Israpafant]

>  <property label>
CC50 at 24 h

>  <val>
13.6 µM

$$$$
>  <compound>
Cc1cc(O)c(C(C)(C)C)cc1C(C)(C)C [4,6-Di-tert-butyl-m-cresol]

>  <property label>
CC50 at 24 h

>  <val>
22.6 µM

$$$$
>  <compound>
CCCCCCCCC1CO1 (stereo not drawn) [1,2-Epoxydecane]

>  <property label>
CC50 at 24 h

>  <val>
> 90 µM

$$$$
>  <compound>
COc1ccc2c(c1)c(CC(=O)O)c(C)n2C(=O)c1ccc(Cl)cc1 [Indomethacin]

>  <property label>
CC50 at 24 h

>  <val>
> 90 µM

$$$$
>  <compound>
O=C(O)CNC(=O)c1ccccc1 [Hippuric acid]

>  <property label>
CC50 at 24 h

>  <val>
> 50 µM

$$$$
>  <compound>
CC(C#N)(CCC(=O)O)N=NC(C)(C#N)CCC(=O)O (stereo not drawn)

>  <property label>
CC50 at 24 h

>  <val>
> 90 µM

$$$$
>  <compound>
NC(=S)NC(N)=S [2,4-Dithiobiuret]

>  <property label>
CC50 at 24 h

>  <val>
> 90 µM

$$$$
>  <compound>
O=[N+]([O-])c1c(Cl)cccc1-c1c[nH]cc1Cl [Pyrrolnitrin]

>  <property label>
CC50 at 24 h

>  <val>
23.7 µM

$$$$
>  <compound>
N[C@@H](CS)C(=O)O [l-Cysteine hydrochloride]

>  <property label>
CC50 at 24 h

>  <val>
> 90 µM

$$$$
>  <compound>
Cc1ccccc1C [o-Xylene]

>  <property label>
CC50 at 24 h

>  <val>
> 90 µM

$$$$
>  <compound>
CCCCCCCCCCCCCCCCI [1-iodohexadecane]

>  <property label>
CC50 at 24 h

>  <val>
> 20 µM

$$$$
>  <compound>
COc1ccccc1/C=C/C=O [trans-2-Methoxycinnamaldehyde]

>  <property label>
CC50 at 24 h

>  <val>
> 90 µM

$$$$
>  <compound>
CC1(C)[C@@H](O)CC[C@]2(C)[C@H]3C(=O)C=C4[C@@H]5C[C@@](C)(C(=O)O)CC[C@]5(C)CC[C@@]4(C)[C@]3(C)CC[C@@H]12 [Glycyrrhetinic acid]

>  <property label>
CC50 at 24 h

>  <val>
28 µM

$$$$
>  <compound>
NC(=O)NS(=O)(=O)c1ccc(N)cc1 [Sulfacarbamide]

>  <property label>
CC50 at 24 h

>  <val>
> 50 µM

$$$$

---

tested on: GH3-TRE-Luc cell line; conditions: read-out: AC50 (uM) modified / 1000; Tox21_110001=Tox21_300478; viability, 1 nM T3 present, 24 h

>  <substance smiles>
COC(=O)Nc1nc2ccccc2[nH]1

>  <CC50 / µM>
11.4

$$$$

---

assay: in vitro; conditions: rat, gh3-tre-luc cells, AC50 (uM) modified / 1000, Tox21_110001=Tox21_300702; viability, 1 nM T3 present, 24 h

>  <substance smiles>
CCNc1nc(NCC)nc(SC)n1

>  <CC50 at 24 h>
> 90 µM

$$$$

---

experiment: in vitro; details: rat, gh3-tre-luc cells, AC50 (uM) modified / 1000, Tox21_110001=Tox21_200110; viability, 1 nM T3 present, 24 h

>  <compound>
OC(O)C(Cl)(Cl)Cl [Chloral hydrate]

>  <CC50 at 24 h>
> 90 µM

$$$$

---

assay: in vitro; details: rat, gh3-tre-luc cells, AC50 (uM) modified / 1000, Tox21_110001=Tox21_300782; viability, 1 nM T3 present, 24 h
Where a name gives a salt, the structure may show the parent alone.

>  <compound>
O=S1(=O)OCC2C(CO1)C1(Cl)C(Cl)=C(Cl)C2(Cl)C1(Cl)Cl (stereo not shown) [Endosulfan sulfate]

>  <CC50 at 24 h (µM)>
56.1

$$$$

---

The entries below are paired with their reported CC50 at 24 h.
assay: in vitro; settings: rat, gh3-tre-luc cells, AC50 (uM) modified / 1000
Where a name gives a salt, the structure may show the parent alone.

>  <compound>
O=C(O)c1c2ccccc2cc2ccccc12

>  <CC50 at 24 h>
> 90 µM

$$$$
>  <compound>
O=C(O)CONC(=O)c1ccccc1

>  <CC50 at 24 h>
> 90 µM

$$$$
>  <compound>
Cc1cc(C(=O)O)ccc1[N+](=O)[O-]

>  <CC50 at 24 h>
> 90 µM

$$$$
>  <compound>
COC(=O)C1=C(C)NC(C)=C(C(=O)O[C@H]2CCN(Cc3ccccc3)C2)[C@H]1c1cccc([N+](=O)[O-])c1 [Barnidipine hydrochloride]

>  <CC50 at 24 h>
16.3 µM

$$$$
>  <compound>
CN(C)C(=O)Nc1ccc(Oc2ccc(Cl)cc2)cc1

>  <CC50 at 24 h>
> 90 µM

$$$$
>  <compound>
CS(=O)(=O)c1ccc(Cl)cc1

>  <CC50 at 24 h>
> 90 µM

$$$$
>  <compound>
CC12CC3CC(C)(C1)CC(N)(C3)C2 [Memantine]

>  <CC50 at 24 h>
38.1 µM

$$$$
>  <compound>
CCC(=O)Nc1ccc(O)cc1

>  <CC50 at 24 h>
> 50 µM

$$$$
>  <compound>
Nc1cc(Cl)c(N=C2NCCN2)c(Cl)c1 [Apraclonidine hydrochloride]

>  <CC50 at 24 h>
> 50 µM

$$$$
>  <compound>
Nc1nc[nH]n1

>  <CC50 at 24 h>
> 90 µM

$$$$
>  <compound>
NC[C@@H]1O[C@H](O[C@H]2[C@@H](O)[C@H](O[C@@H]3[C@@H](O)[C@H](N)C[C@H](N)[C@H]3O[C@H]3O[C@H](CO)[C@@H](O)[C@H](O)[C@H]3N)O[C@@H]2CO)[C@H](N)[C@@H](O)[C@@H]1O [Paromomycin sulfate]

>  <CC50 at 24 h>
> 50 µM

$$$$
>  <compound>
O=C(O)c1ccccc1Nc1cccc(C(F)(F)F)c1

>  <CC50 at 24 h>
> 50 µM

$$$$
>  <compound>
O=C(O)c1cc(O)c2c3nc4ccccc4oc-3cc(=O)c2n1 [Pirenoxine sodium]

>  <CC50 at 24 h>
> 50 µM

$$$$
>  <compound>
CCC(=O)O[C@@H]1CC(=O)O[C@H](C)C/C=C/C=C/[C@H](O)[C@H](C)C[C@H](CC=O)[C@H](O[C@@H]2O[C@H](C)[C@@H](O[C@H]3C[C@@](C)(O)[C@@H](OC(=O)CC)[C@H](C)O3)[C@H](N(C)C)[C@H]2O)[C@H]1OC

>  <CC50 at 24 h>
> 20 µM

$$$$
>  <compound>
CC/C=C\CC/C=C/C=O [trans-2,cis-6-Nonadienal]

>  <CC50 at 24 h>
> 90 µM

$$$$
>  <compound>
CCCCCCCC[N+](C)(CCCCCCCC)CCCCCCCC

>  <CC50 at 24 h>
4.19 µM

$$$$
>  <compound>
CCCCCCC(=O)O

>  <CC50 at 24 h>
> 90 µM

$$$$
